method: ATG_GRE_CIS: Attagene CIS-FACTORIAL HepG2 Assay for human Glucocorticoid Response Elements (GRE) (AID 2282947)
condition-parameters: HepG2 GRE cis-reporter, Attagene multiplex mRNA; actives raise or lower the signal
The source made the active and inactive calls. The calls were made as follows: active = hit-call score of the fitted dose curve at least 0.9, where 1 is the maximum; inactive = score below 0.9.
result-type: outcome

{"columns": ["compound", "outcome"],
 "data": [
  ["COC(=O)c1ccc(C=O)cc1", "inactive"],
  ["NCC(F)(F)C(F)(F)C(F)(F)C(F)(F)C(F)(F)C(F)(F)C(F)(F)C(F)(F)F", "inactive"],
  ["CCN(CCO)S(=O)(=O)C(F)(F)C(F)(F)C(F)(F)C(F)(F)C(F)(F)C(F)(F)C(F)(F)C(F)(F)F", "inactive"],
  ["CO[Si](CCCOCC1CO1)(OC)OC (stereo unspecified)", "inactive"]
]}

Please report outcome for every entry that follows.
1. N#CCCOCCC#N
2. C=C(C)CCCC

Response:
inactive
inactive

* * *

Read-out: Monocyte Chemoattractant Protein-1 (MCP1), CCL2 (gene 6347)
method: BSK_4H_MCP1: BioMAP Diversity Plus: 4H Assay for Monocyte Chemoattractant Protein-1 (MCP1) Biomarker Activity (AID 2283018)
condition-parameters: primary human endothelial cells (HUVEC); actives raise or lower the signal
Active and inactive are the calls of the source. The calls were made as follows: active = hit-call score of the fitted dose curve at least 0.9, where 1 is the maximum; inactive = score below 0.9.
result-type: AC50

Below, each entry is followed by its recorded AC50 result.
{"columns": ["compound", "AC50"],
 "data": [
  ["CC1=CC2C3C=CC(C3)C2C1C (centres undefined)", "inactive"],
  ["Cc1cc(C)c(O)c(C(C)(C)C)c1", "30.7 µM (active)"],
  ["Cc1cc(O)c(C(C)(C)C)cc1C(C)(C)C", "3.83 µM (active)"],
  ["C=C(C)C(=O)OCC(F)(F)C(F)(F)C(F)(F)C(F)F", "inactive"],
  ["NC(=O)C(F)(F)C(F)(F)C(F)(F)C(F)(F)C(N)=O", "inactive"]
]}

// input: 2 compounds below; output: AC50 for each
1. Cc1ccc(S(=O)(=O)C(I)I)cc1
2. O=C(F)C1(F)C(F)(F)C(F)(F)C(F)(F)C(F)(F)C1(F)F

Response:
1: 1.43 µM (active); 2: inactive

Can you give me AC50 for all of these, one by one?
1. O=C(O)C(F)(F)C(F)(F)C(F)(F)C(=O)O
2. C=CC(=O)OCCC(F)(F)C(F)(F)C(F)(F)C(F)(F)F
3. NS(=O)(=O)C(F)(F)C(F)(F)C(F)(F)C(F)(F)C(F)(F)C(F)(F)F
4. O=C(Cl)C(F)(F)C(F)(F)C(F)(F)C(F)(F)C(F)(F)C(F)(F)C(F)(F)F
5. CCN(CCO)S(=O)(=O)C(F)(F)C(F)(F)C(F)(F)C(F)(F)C(F)(F)C(F)(F)C(F)(F)C(F)(F)F
6. O=S(=O)(O)CCC(F)(F)C(F)(F)C(F)(F)C(F)(F)C(F)(F)C(F)(F)C(F)(F)C(F)(F)F
7. Brc1nc2ccccc2s1
8. O=C1c2c(O)ccc(Nc3ccc(CCO)cc3)c2C(=O)c2c([N+](=O)[O-])ccc(O)c21

Response:
1. inactive
2. inactive
3. inactive
4. inactive
5. inactive
6. inactive
7. inactive
8. 30.4 µM (active)

Hey, quick one: what's AC50 for each of these?
1. O=S(=O)(OCC(F)(F)F)C(F)(F)C(F)(F)C(F)(F)C(F)(F)F
2. O=C(O)CCC(F)(F)C(F)(F)C(F)(F)C(F)(F)C(F)(F)C(F)(F)C(F)(F)F
3. OCC(F)(F)C(F)(F)C(F)(F)CO

Response:
inactive
inactive
inactive

What the record says about FC(F)(F)C(F)(F)C(F)(F)CC1CO1 (centres undefined) : AC50 is inactive
